Origin of the recorded values: PubChem BioAssay (NCI)

System: SF-539 CNS
RUN DESCRIPTION: NCI tumour cell line growth inhibition, 48 h
ASSAY READOUT: TGI

COc1cccc([C@@H]2CC(=O)c3cc4c(cc3N2)OCO4)c1 | > 100 µM
CN(C)CC1CCCc2ccccc2C1=O (stereo unspecified) | 10.1 µM
O=C1CCSC(=S)N1c1ccc(Br)c(Cl)c1 | > 100 µM
O=c1c2cc(I)ccc2nc(SCc2nnco2)n1Cc1ccccc1 | > 100 µM

Asked: Given CN(C)CC1CCCCCC(Br)C1=O (stereo unspecified) , state its recorded TGI.
Given back: 31.8 µM

Asked: // repeat for CC(C)C[CH2][Ge]([CH2]CC(C)C)([CH2]CC(C)C)[CH2]CC(C)C and report
Given back: > 100 µM

Asked: // repeat for N#Cc1cc([N+](=O)[O-])ccc1NC(=O)C(=O)C(C(=O)c1ccc2ccccc2c1)C1OCc2ccccc21 (stereo unspecified) and report
Given back: 5.83 µM

Asked: // repeat for Cc1cn([C@H]2C[C@H](O)[C@@H](CO)O2)c(=O)nc1N and report
Given back: > 100 µM

Asked: // repeat for O=C1c2cccc3c(Cl)ccc(c23)C(=O)N1CCCN1CCN(CCCN2C(=O)c3cccc4c(Cl)ccc(c34)C2=O)CC1 and report
Given back: > 100 µM

Asked: // repeat for Cc1cccc(C(C)C)c1NC(=O)CCl and report
Given back: > 100 µM

Asked: // repeat for COc1cc(S(=O)(=O)Nc2ccc(-c3csc(N4C(=O)C(C)SC4c4ccccc4)n3)cc2)ccc1Cl (stereo unspecified) and report
Given back: > 100 µM
